Entries and their measured Recovery follow.
- Species on record: Mus musculus
- assay.procedure: Compounds were evaluated for the percent recovery of the contraction induced by PGF2-alpha in the isolated mouse uterus at a concentration 10 E -4 M
- Format: functional, tissue-based

[
  {
    "compound": "CCCC1(CCC(=O)O)Cc2cc(OCc3ccccc3)ccc2C1=O (stereo not given)",
    "Recovery": "85.3%"
  },
  {
    "compound": "CCC1(CCC(=O)O)Cc2cc(OCc3ccccc3)ccc2C1=O (stereo not given)",
    "Recovery": "70.4%"
  },
  {
    "compound": "CCCCC1(CCC(=O)O)Cc2cc(OCc3ccccc3)ccc2C1O (stereo not given)",
    "Recovery": "104%"
  },
  {
    "compound": "O=C(O)CCC1(CCC(=O)O)Cc2cc(OCc3ccccc3)ccc2C1=O",
    "Recovery": "91.1%"
  },
  {
    "compound": "CCC[C@@]1(CCC(=O)O)Cc2cc(OCc3ccccc3)c(OCc3ccccc3)cc2[C@H]1O",
    "Recovery": "82.8%"
  }
]
